Target: CK1 ε (Homo sapiens, UniProt P49674)
Sequence (P49674 whole entry): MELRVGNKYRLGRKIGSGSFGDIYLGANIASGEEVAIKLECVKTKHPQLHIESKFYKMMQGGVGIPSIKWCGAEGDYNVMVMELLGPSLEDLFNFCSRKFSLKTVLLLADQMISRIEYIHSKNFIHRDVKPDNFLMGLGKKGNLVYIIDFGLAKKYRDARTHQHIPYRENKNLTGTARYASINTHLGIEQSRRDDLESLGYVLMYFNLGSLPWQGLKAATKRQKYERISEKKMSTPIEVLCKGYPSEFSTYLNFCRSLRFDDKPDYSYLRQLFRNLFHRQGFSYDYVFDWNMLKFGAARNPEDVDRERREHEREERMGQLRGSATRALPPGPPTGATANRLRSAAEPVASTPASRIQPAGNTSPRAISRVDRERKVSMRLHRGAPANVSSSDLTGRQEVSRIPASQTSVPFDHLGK
pIC50: −log10 of the molar value.
REPORTED ENDPOINT: pIC50

>  <COMPOUND>
Fc1ccc(-c2nc3ccc(N4CCNCC4)nn3c2-c2ccncc2)cc1

>  <REPORTED ENDPOINT>
pIC50

>  <TEST RESULT>
7.80

$$$$
>  <COMPOUND>
Nc1nccc(-c2c(-c3ccc(F)cc3)ncn2C2CCN(Cc3ccon3)CC2)n1 [PF-5006739, reference compound]

>  <REPORTED ENDPOINT>
pIC50

>  <TEST RESULT>
7.57

$$$$

* * *

Each record here notes measured pIC50.
Biological target: CK1 δ (Homo sapiens)
Sequence (P48730 whole entry): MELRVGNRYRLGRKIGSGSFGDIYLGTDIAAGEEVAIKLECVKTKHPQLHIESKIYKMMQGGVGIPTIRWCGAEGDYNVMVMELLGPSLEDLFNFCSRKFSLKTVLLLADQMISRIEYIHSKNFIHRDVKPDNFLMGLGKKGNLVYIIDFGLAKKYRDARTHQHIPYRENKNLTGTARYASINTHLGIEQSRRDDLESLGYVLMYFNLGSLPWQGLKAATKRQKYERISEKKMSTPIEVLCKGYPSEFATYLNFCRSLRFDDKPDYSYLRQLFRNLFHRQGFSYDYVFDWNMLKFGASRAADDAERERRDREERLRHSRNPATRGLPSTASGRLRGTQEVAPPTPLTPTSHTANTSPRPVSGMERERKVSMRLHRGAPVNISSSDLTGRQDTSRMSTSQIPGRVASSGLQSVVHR
pIC50: −log10 of the molar value.
REPORTED ENDPOINT: pIC50

>  <COMPOUND>
Nc1nccc(-c2c(-c3ccc(F)cc3)ncn2C2CCN(Cc3ccon3)CC2)n1 [PF-5006739, reference compound]

>  <TEST RESULT>
7.70

$$$$
>  <COMPOUND>
Cn1cc(-c2ccnc3c2C(=O)N(C2CCOCC2)C3)c(-c2ccc(F)cc2)n1

>  <TEST RESULT>
7.74

$$$$

* * *

Biological target: UniProtKB P48729
Sequence (P48729 whole entry): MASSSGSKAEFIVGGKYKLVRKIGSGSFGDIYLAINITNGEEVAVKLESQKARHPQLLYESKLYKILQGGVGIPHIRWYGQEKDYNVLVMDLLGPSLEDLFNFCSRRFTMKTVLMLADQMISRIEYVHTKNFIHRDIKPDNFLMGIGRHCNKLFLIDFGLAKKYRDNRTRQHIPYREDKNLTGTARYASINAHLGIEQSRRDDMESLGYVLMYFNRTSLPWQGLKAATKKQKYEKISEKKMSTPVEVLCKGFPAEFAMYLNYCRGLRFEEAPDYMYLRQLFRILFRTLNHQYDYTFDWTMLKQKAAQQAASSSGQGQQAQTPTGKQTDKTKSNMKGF
pIC50: −log10 of the molar value.
Each record here notes measured pIC50.

>  <MOLECULE>
CN1Cc2nccc(-c3cn(C)nc3-c3ccc(F)cc3)c2C1=O [Compound E]

>  <QUALIFIER SIGN>
=

>  <pIC50>
6.23

$$$$
>  <MOLECULE>
Nc1nccc(-c2c(-c3ccc(F)cc3)ncn2C2CCCCC2)n1 [PF-670462, reference compound]

>  <QUALIFIER SIGN>
=

>  <pIC50>
6.49

$$$$
>  <MOLECULE>
Fc1cccc(-n2cnc3c(NCc4nc5ccc(F)c(F)c5[nH]4)nc(N4CCOCC4)nc32)c1 [SR-3029, reference compound]

>  <QUALIFIER SIGN>
<

>  <pIC50>
5.00

$$$$
>  <MOLECULE>
Nc1nccc(-c2c(-c3ccc(F)cc3)ncn2C2CCN(Cc3ccon3)CC2)n1 [PF-5006739, reference compound]

>  <QUALIFIER SIGN>
=

>  <pIC50>
6.91

$$$$
>  <MOLECULE>
Cn1cc(-c2ccnc3c2C(=O)OC3)c(-c2ccc(F)cc2)n1 [Compound D]

>  <QUALIFIER SIGN>
=

>  <pIC50>
6.19

$$$$
>  <MOLECULE>
Cn1cc(-c2ccnc3c2C(=O)N(C2CCOCC2)C3)c(-c2ccc(F)cc2)n1 [Compound F]

>  <QUALIFIER SIGN>
=

>  <pIC50>
6.25

$$$$

* * *

Molecular target: p38 (Homo sapiens, UniProt Q16539)
Sequence (Q16539 whole entry): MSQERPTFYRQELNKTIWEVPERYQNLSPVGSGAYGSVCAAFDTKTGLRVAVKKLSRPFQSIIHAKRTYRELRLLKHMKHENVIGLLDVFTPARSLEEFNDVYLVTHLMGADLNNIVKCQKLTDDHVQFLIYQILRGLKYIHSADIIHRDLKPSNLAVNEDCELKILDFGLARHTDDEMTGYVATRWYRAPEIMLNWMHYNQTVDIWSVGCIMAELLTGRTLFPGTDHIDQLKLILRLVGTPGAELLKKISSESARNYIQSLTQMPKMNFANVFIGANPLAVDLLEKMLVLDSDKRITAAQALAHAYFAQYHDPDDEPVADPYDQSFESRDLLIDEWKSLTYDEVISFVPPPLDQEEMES
pIC50: −log10 of the molar value.

>  <COMPOUND>
Nc1nccc(-c2c(-c3ccc(F)cc3)ncn2C2CCN(Cc3ccon3)CC2)n1 [PF-5006739, reference compound]

>  <QUALIFIER SIGN>
=

>  <pIC50>
7.13

$$$$
>  <COMPOUND>
Fc1ccc(-c2nc3ccc(N4CCNCC4)nn3c2-c2ccncc2)cc1

>  <QUALIFIER SIGN>
=

>  <pIC50>
7.60

$$$$
>  <COMPOUND>
Fc1cccc(-n2cnc3c(NCc4nc5ccc(F)c(F)c5[nH]4)nc(N4CCOCC4)nc32)c1 [SR-3029, reference compound]

>  <QUALIFIER SIGN>
<

>  <pIC50>
5.00

$$$$
>  <COMPOUND>
CC1(C)CN(c2ccc3nc(-c4ccc(F)cc4)c(-c4ccncc4)n3n2)CCN1

>  <QUALIFIER SIGN>
=

>  <pIC50>
7.89

$$$$
>  <COMPOUND>
Nc1nccc(-c2c(-c3ccc(F)cc3)ncn2C2CCCCC2)n1 [PF-670462, reference compound]

>  <QUALIFIER SIGN>
=

>  <pIC50>
7.49

$$$$
>  <COMPOUND>
CN1Cc2nccc(-c3cn(C)nc3-c3ccc(F)cc3)c2C1=O

>  <QUALIFIER SIGN>
=

>  <pIC50>
5.95

$$$$
